# maps each entry to its IC50
target: Zcchc11 enzyme (Homo sapiens); construct: made in house; host or cells: HEK293 cells (Zcchc11); E. coli Rosetta II (LIN28A); test: TUTase assay (Zcchc11 assay, Lin28a-dependent polyuridylation of pre-let-7); assay type: biochemical; conditions: Lin28a-dependent Zcchc11 (Z11) TUTase activity; read-out: Potency Lin28a-dep Z11 IC50
Sequence (Q5TAX3 212-1420): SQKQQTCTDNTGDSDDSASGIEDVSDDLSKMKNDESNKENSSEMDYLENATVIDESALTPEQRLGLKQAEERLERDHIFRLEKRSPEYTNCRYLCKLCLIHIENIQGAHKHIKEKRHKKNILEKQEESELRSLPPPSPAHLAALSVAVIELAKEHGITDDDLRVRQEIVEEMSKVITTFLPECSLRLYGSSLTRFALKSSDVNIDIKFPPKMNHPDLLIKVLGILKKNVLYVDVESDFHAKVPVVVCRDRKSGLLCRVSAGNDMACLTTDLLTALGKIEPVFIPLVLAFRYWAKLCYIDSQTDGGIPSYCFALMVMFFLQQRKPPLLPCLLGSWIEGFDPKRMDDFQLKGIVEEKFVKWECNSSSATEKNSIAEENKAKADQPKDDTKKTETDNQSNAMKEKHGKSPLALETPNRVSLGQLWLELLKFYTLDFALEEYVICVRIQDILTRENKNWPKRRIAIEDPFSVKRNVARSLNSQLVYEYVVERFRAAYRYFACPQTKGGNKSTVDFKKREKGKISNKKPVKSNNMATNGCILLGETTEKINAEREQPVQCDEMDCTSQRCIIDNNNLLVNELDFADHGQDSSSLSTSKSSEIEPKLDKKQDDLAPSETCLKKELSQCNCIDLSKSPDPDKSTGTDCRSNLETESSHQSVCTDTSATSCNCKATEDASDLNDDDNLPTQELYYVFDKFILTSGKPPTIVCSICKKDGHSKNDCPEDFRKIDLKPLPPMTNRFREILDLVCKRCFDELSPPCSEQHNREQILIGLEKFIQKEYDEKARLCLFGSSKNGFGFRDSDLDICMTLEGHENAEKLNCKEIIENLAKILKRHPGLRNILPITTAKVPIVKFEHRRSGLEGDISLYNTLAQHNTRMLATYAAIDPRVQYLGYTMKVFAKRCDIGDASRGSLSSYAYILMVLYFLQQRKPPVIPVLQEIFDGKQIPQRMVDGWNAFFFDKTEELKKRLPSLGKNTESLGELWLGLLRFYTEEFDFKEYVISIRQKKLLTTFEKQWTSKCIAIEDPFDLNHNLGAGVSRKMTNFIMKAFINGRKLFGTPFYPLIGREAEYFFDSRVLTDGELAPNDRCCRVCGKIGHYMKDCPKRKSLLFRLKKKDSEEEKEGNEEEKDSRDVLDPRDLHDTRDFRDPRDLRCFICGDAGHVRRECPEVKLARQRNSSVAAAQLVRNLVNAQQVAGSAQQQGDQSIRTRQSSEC

Reference set (3 entries):
compound	result
CC1(n2cc(C(=O)O)c(=O)c3cc(Cl)c(N4CCC[C@@H]4CN4CCc5cccnc54)cc32)CC1	1000 to 10000 nM
COc1ccc(COc2ccc(-n3cc(C(=O)O)c(=O)c4cc(F)c(N5CCC[C@@H]5COc5ncccn5)cc43)c(F)c2)cc1	≤ 1000 nM
O=C(O)c1cn(-c2cnccn2)c2cc(N3CCC[C@@H]3COc3ncccc3F)c(Cl)cc2c1=O	≤ 1000 nM

**Query** Data request, read-out IC50, for Nc1ccc(-n2cc(C(=O)O)c(=O)c3cc(F)c(N4CCC[C@@H]4COc4ncccc4F)cc32)cn1
**Result** ≤ 1000 nM

**Query** Endpoint output: IC50 of COc1ccc(Cl)c(OC[C@H]2CCCN2c2cc3c(cc2C)c(=O)c(C(=O)O)cn3-c2ccc(N3CC(N(C)C)C3)nc2)n1 . Value?
**Result** ≤ 1000 nM

**Query** Can you look up the measured IC50 of COc1ccc(F)c(OC[C@H]2C[C@H]3C[C@H]3N2c2cc3c(cc2F)c(=O)c(C(=O)O)cn3-c2ccc(N(C)C)nc2)n1 for me?
**Result** ≤ 1000 nM

**Query** Looking for the measured IC50 of O=C(O)c1cn(-c2ccc(Cl)c(O)c2)c2cc(N3CCC[C@@H]3COc3ncccc3Cl)c(Cl)cc2c1=O , can you help?
**Result** ≤ 1000 nM

**Query** Tell me the measured IC50 of CN(C)C1CN(c2ccc(-n3cc(C(=O)O)c(=O)c4cc(Cl)c(N5C6CCC5(COc5ncccc5Cl)CC6)cc43)cn2)C1 , please.
**Result** ≤ 1000 nM

**Query** Can you share its IC50? I mean this compound: CN(C)C(=O)NC[C@H]1CCCN1c1cc2c(cc1Cl)c(=O)c(C(=O)O)cn2-c1ccc(N2CC(N(C)C)C2)nc1
**Result** ≤ 1000 nM

**Query** Report IC50 for Cc1cc2c(=O)c(C(=O)O)cn(-c3ccnc(N)c3)c2cc1N1CCC[C@@H]1COc1ncccc1Cl please.
**Result** ≤ 1000 nM
